Recorded values, source ChEMBL document CHEMBL1201862.

# System: KM-20L2
# assayNotes: NCI tumour cell line growth inhibition, 48 h
The source made the active and inactive calls. No stated cut-off is given here; in the data, active = GI50 up to about 1.1 µM and inactive = higher.
Labels: TRUE (active), FALSE (inactive)

1. C=C1C(=O)OC2/C=C(\C)C(O)/C=C\C(C)(O)CC(OC(=O)/C(C)=C/C)C12 (stereo not given); FALSE
2. C=C1CC(OC)(C(OC)C(=O)N[C@H]2OCO[C@H]3C2O[C@H](C[C@@H](COC)OC)C(C)(C)C3OC)O[C@H](C)[C@@H]1C (stereo not given in full); TRUE
3. Cc1[nH]c2ccccc2c1C1=NO/C(=N\O)C(c2c(C)[nH]c3ccccc23)C1 (stereo not given); FALSE
4. COc1cc([C@@H]2OC(=O)C3C2C(=O)O[C@H]3c2ccc(O)c(OC)c2)ccc1O (stereo not given in full); FALSE
5. O=S1(=O)c2ccccc2N(O)C2=NCCN21; FALSE
6. CC(=O)OC1CC2C(C)(C)C(=O)C=C[C@]2(C)C2CCC3(C)C(c4ccoc4)C(=O)C4OC43[C@]12C (stereo not given in full); FALSE
7. O=[N+]([O-])c1cc(I)cc(/C=N/NS(=O)(=O)c2ccc(F)cc2)c1O; FALSE
8. Nc1ccc2c(c1)C1=NNC(=O)CC1C2 (stereo not given); FALSE
9. Cc1nc2c(nc1Cl)nc(Oc1ccc(Cl)cc1)c1ccccc12; FALSE
10. CC(=O)OC1C(CCl)OC(N=[N+]=[N-])C(OC(C)=O)C1OC(C)=O (stereo not given); FALSE
11. CP(C)C.[Ag][I]; FALSE
12. CC(=O)O[C@H]1CC[C@@]2(C)C(=CC[C@@H]3C2CC[C@]2(C)Nc4oncc4CC32)C1 (stereo not given in full); FALSE
13. COC(=O)N/N=C(\C)CC(=O)Nc1cccc([N+](=O)[O-])c1; FALSE
14. CN/N=C(/CC(=O)c1sc(NNC(C)=O)nc1C)C(=O)Nc1ccc(OC)cc1OC; FALSE
15. C[N+](C)(C)CC(=O)N/N=C(\C(=O)NC1=C(Cl)C(=O)c2ccccc2C1=O)C(C#N)c1csc(-c2ccc([N+](=O)[O-])cc2)n1 (stereo not given); FALSE
16. COC(=O)/C=C(C)/C=C/c1cc(C(C)=O)c(C)o1; FALSE
17. C[C@H]1CCC/C=C/[C@@H]2C[C@H](O)C[C@H]2[C@H](O)/C=C/C(=O)O1; TRUE
18. O=C(O)/C(=C/C=C/c1ccccc1)c1csc(-c2nc(/C(=C\C=C\c3ccccc3)C(=O)O)cs2)n1; FALSE
19. CCOC(=O)C1(c2ccccc2)CCCNCC1 (stereo not given); FALSE
20. C[C@]12CCc3nonc3C1CC[C@@H]1C2CC[C@@]2(C)C1CC[C@@H]2O (stereo not given in full); FALSE

###

# System: U-251
# assayNotes: NCI tumour cell line growth inhibition, 48 h
The source made the active and inactive calls. Cut-off read from the data, not from the text of the source: active = GI50 up to about 1.1 µM and inactive = higher.
Labels: True (active), False (inactive)

1. NC(=S)NNC(=S)NC(=O)c1ccco1; False
2. Cc1nc2c(nc1Cl)nc(Oc1ccc(Cl)cc1)c1ccccc12; False
3. COc1cc(C2(C)SCCCS2)c(I)c(OC)c1OC; False
4. CNC(=O)c1cccc2c(Nc3ccc(NS(C)(=O)=O)cc3OC)c3cccc(C)c3nc12; True

###

# Test system: MDA-N
# assayNotes: NCI tumour cell line growth inhibition, 48 h
Active and inactive are the calls of the source. No stated cut-off is given here; in the data, active = GI50 up to about 1.1 µM and inactive = higher.
Attribute: GI50
assayReadout: GI50

1. N#Cc1c(-c2ccccc2)c(CN2CCCCC2)c(=O)n2c1[nH]c1ccccc12; 27.5 µM (inactive)
2. C=C(C)C1Cc2c(cc(OC)c3c(=O)c4cccc(O)c4oc23)O1 (stereo not given); 20 µM (inactive)
3. NC(=O)NNCc1c(-c2ccccc2)no[n+]1[O-]; > 100 µM (inactive)
4. COC(=O)c1cc(O)nc(O)n1; > 100 µM (inactive)
5. CCOC(=O)c1ccc(-n2nnc(C(N)=O)c2O)cc1; > 100 µM (inactive)
6. O=C1C[C@H](CCC(=O)OCc2ccccc2)NC(=O)C[C@H](CCC(=O)OCc2ccccc2)NC(=O)C[C@H](CCC(=O)OCc2ccccc2)N1; > 100 µM (inactive)
7. O=C1c2cc3c(cc2CC12Cc1ccc4c(c1C2=O)CCC4)CCCC3 (stereo not given); > 100 µM (inactive)
8. CN(O)C(=O)/C=C/c1ccc(OCc2cccc(Cl)c2)cc1; 43.1 µM (inactive)
9. COC(=O)C(Cc1ccccc1)NC(=O)CCCNC(=O)OCc1ccccc1 (stereo not given); 63.7 µM (inactive)
10. CCc1nn(CN2CCOCC2)c(=S)n1/N=C/c1ccc(-c2ccc(Cl)cc2)o1; > 100 µM (inactive)

###

# System: CAKI-1
# assayNotes: NCI tumour cell line growth inhibition, 48 h
The source made the active and inactive calls. Rule as the data show it: active = GI50 up to about 1.1 µM and inactive = higher. Residues, ends and D or L forms follow the SMILES beside them. *: point of attachment. Boc = CC(C)(C)OC(=O)*; OBn = c1ccc(CO*)cc1
assayReadout: GI50

1. O=C(NCCCCCCCCNC(=O)c1cc(-c2ccccc2)nc2ccccc12)c1cc(-c2ccccc2)nc2ccccc12; > 100 µM (inactive)
2. Clc1cc(Cl)cc(/C=N/C23CC4CC(CC(C4)C2)C3)c1; > 10 µM (inactive)
3. CC1N=C(c2ccccc2)OC1=O (centres undefined); > 100 µM (inactive)
4. CC(NC(=O)CNC(=O)OC(C)(C)C)C(=O)NC(Cc1ccccc1)C(=O)OCc1ccccc1 (stereo not drawn) (Boc-Gly-Ala-Phe-OBn; configuration not given here); > 100 µM (inactive)
5. Cc1ccc(S(=O)(=O)CN2C(=O)C(c3ccccc3)(c3ccccc3)C23OC(c2ccc(Cl)cc2)=CC3=O)cc1 (centres undefined); > 10 µM (inactive)
6. CC(C)C(NCc1c2ccccc2[n+]([O-])c2ccccc12)C(=O)O (centres undefined); > 100 µM (inactive)
7. NN/C(=N\c1ccc(Cl)cc1)NS(=O)(=O)c1ccc(S(=O)(=O)c2ccccc2)s1; 27.7 µM (inactive)
8. O=C(Nc1ccc(C(F)(F)F)cc1[N+](=O)[O-])C(=O)C1NC(=S)NC1=O (centres undefined); 54.1 µM (inactive)
9. CN1C(=O)CSC1=S; > 100 µM (inactive)

###

# Test system: TK-10
# assayNotes: NCI tumour cell line growth inhibition, 48 h
The source made the active and inactive calls. Rule as the data show it: active = GI50 up to about 1.1 µM and inactive = higher.
Labels: y (active), n (inactive)

1) COc1cc2c(c(OC)c1OC)-c1ccc(SC)c(=O)cc1[C@@H](NC(=O)C(F)(F)F)CC2; n
2) COc1ccc(C(=O)/C=C/c2ccc(OCCCOc3ccc(/C=C/C(=O)c4ccc(OC)cc4)cc3)cc2)cc1; n
3) CN1CCc2c([nH]c3ccccc23)C1; n
4) CC1(C)CNC(=O)C2(CCCO2)CNC(C)(C)CNC(=O)C2(CCCO2)CN1 (stereo unspecified); n
5) OC[C@@H](O)[C@H](O)[C@@H](O)/C=N/Nc1ccc(Cl)nn1; n
6) C=CCCCCCCCC(O)C1C[C@H](O)C(CCCCC)O1 (stereo partly specified); n
7) NN/C(=N\c1ccc(Cl)cc1)NS(=O)(=O)c1ccc(S(=O)(=O)c2ccccc2)s1; n
8) CC(=O)OC1CC2C(C)(C)C(=O)C=C[C@]2(C)C2CCC3(C)C(c4ccoc4)C(=O)C4OC43[C@]12C (stereo partly specified); n
9) C[C@H]1/C(=C/C(=O)OCCN(C)C)CC[C@H]2[C@H]1C(=O)C[C@H]1C(C)(C)[C@@H](O)CC[C@]21C; n
10) COC1=CC(=O)C(C2CC(=O)c3c(O)cc(O)cc3O2)=CC1=O (stereo unspecified); n
11) O=C1CCCCCCCCCCOC(=O)CCCCCCCCCCO1; n
12) C=C[C@@]12CCCCC1C/C(=C(/O)OC)C(=O)C2 (stereo partly specified); n
13) C=C1C2C[C@@H]3O[C@H]4C[C@H]5O[C@@]6(C[C@@H]7O[C@]8(C[C@H](C)[C@@H]9O[C@@H]%10CC(CO)O[C@@H]%10C[C@@H]9O8)C[C@H](C)[C@@H]7O6)C[C@H]5O[C@H]4[C@H](C)[C@H]3OC(=O)C[C@H]3CC[C@@H]4OC5[C@H]6O[C@]7(CC[C@H]8CC(=C)[C@H](CC[C@@H](C[C@H]1C)O2)O8)CC6O[C@@H]5[C@@H](O7)[C@H]4O3 (stereo partly specified); y
14) O=C(NCCCCCCCCNC(=O)c1cc(-c2ccccc2)nc2ccccc12)c1cc(-c2ccccc2)nc2ccccc12; n
15) COC(=O)/C=C(/C=C1/C(C#N)=C(N)N(c2ccc(Cl)cc2)C1(C)/C(=C\C(=O)OC)C(=O)OC)C(=O)OC (stereo unspecified); n
16) CC(=O)OCC1OC(c2nnc(C)o2)=CC(OC(C)=O)C1OC(C)=O (stereo unspecified); n
17) c1coc(-c2nccc3c2[nH]c2ccccc23)c1; n
18) CC1=NC(=Cc2ccc(Cl)cc2)C(=O)N1n1c(-c2ccccc2)nc2ccccc2c1=O; n
19) Oc1cccc2c1[nH]c1c(C3=C[C@@]4(O)CC/C=C\CCCCN5CC[C@@H]3[C@]3(CC6/C=C\CCCCN6[C@H]34)C5)nccc12 (stereo partly specified); n
20) CCOC(=O)c1cc(C2CCN(c3ccccc3)C2=O)c(C(=O)/C=C(/C)N)[nH]1 (stereo unspecified); n
21) CC(C)(C)C(=O)OC12/C(=N/O)CCCCCC1c1ccccc12 (stereo unspecified); n
22) O=C(Nc1ccc2[nH]c(C(=O)N3CC(CCl)c4c3cc([N+](=O)[O-])c3ccccc43)cc2c1)Nc1ccc2[nH]c(C(=O)N3CC(CCl)c4c3cc([N+](=O)[O-])c3ccccc43)cc2c1 (stereo unspecified); n
23) CC(=O)OCC1OC(n2c(C)c(/N=N/c3ccc(C)cc3)c(C)c(C#N)c2=S)C(OC(C)=O)C(OC(C)=O)C1OC(C)=O (stereo unspecified); n
24) Nc1ccc(Oc2ccc(C34CC5CC(C3)CC(c3ccc(Oc6ccc(N)cc6)cc3)(C5)C4)cc2)cc1; n
25) O=C1CCC(=O)N1CNc1ccc2c(c1)S(=O)(=O)c1ccccc1O2; n
26) O=C(O)c1c[nH]c2c(ccc3ncccc32)c1=O; n
27) N/N=C1\CCCc2c1no[n+]2[O-]; n
28) Cc1cccc(C)c1NC(=O)CCc1n[nH]c(=S)o1; n
29) O=c1cc(N2CCCC2)[nH]c(=O)n1-c1ccc(Cl)cc1; n
30) CCC(C)[C@H](NC(=O)N[C@H](C)c1ccccc1)C(=O)OC (stereo partly specified); n
31) COc1ccc(-c2c(-c3ccccc3)c(C)c3ccccn23)cc1; n
32) C=C1C(=O)[C@@]23CC[C@@H]4[C@@]5(C)CCC[C@@]4(OC5=O)[C@@]2(C)CC[C@@H]1C3; y
33) COP(=O)(OC)C(O)/C=C(\Cl)c1ccc(Cl)cc1 (stereo unspecified); n
34) Nc1nc(N)c2cc(Sc3cccc(C(F)(F)F)c3)ccc2n1 [WR-159412]; n
35) CC(C)(C)N/C(N)=N/C#N; n
36) NC(=S)N/N=C1\C(=O)N(c2cccc([N+](=O)[O-])c2)C(=O)C1C(=O)Nc1cccc([N+](=O)[O-])c1 (stereo unspecified); n
